assay: Liver oxidative stress markers after treatment of MNU-induced rats; type: in vivo, Wistar rats; settings: superoxide dismutase activity, liver, dose 50 mg/kg
measuredMetric: SOD (U/mg)
Please respond with the number in U/mg and leave the unit unwritten.

Solved entries (count: 6):
compound: CC(=O)c1cc(C(=O)O[C@@H]2/C=C/C(=O)O[C@@H](O)CCC/C=C/[C@@H]3C[C@H](O)C[C@H]32)ccc1OCCN1CC(C(=O)O)=CCC1=O [Compound 3DPQ-9]
SOD (U/mg): 14.43
--
compound: CC(=O)c1cc(C(=O)OC2/C=C/C(=O)O[C@@H](O)CCC/C=C/[C@@H]3C[C@H](O)C[C@@H]23)ccc1OCCN1CCC=C(C(=O)O)C1 (some centres unmarked) [Compound 3DPQ-3]
SOD (U/mg): 11.46
--
compound: CC(=O)c1cc(C(=O)O[C@@H]2/C=C/C(=O)O[C@@H](O)CCC/C=C/[C@@H]3C[C@H](O)C[C@H]32)ccc1OCCN(C)C [Compound 3DPQ-2]
SOD (U/mg): 12.3
--
compound: CC(=O)c1cc(C(=O)O[C@@H]2/C=C/C(=O)O[C@@H](O)CCC/C=C/[C@@H]3C[C@H](O)C[C@H]32)ccc1OCCS(=O)(=O)O [Compound 3DPQ-4]
SOD (U/mg): 10.57
--
compound: CC/C(=C(\c1ccc(O)cc1)c1ccc(OCCN(C)C)cc1)c1ccccc1 [Compound 4-OHT., 4-hydroxytamoxifen, reference compound]
SOD (U/mg): 7.46
--
compound: CN(N=O)C(N)=O [MNU, Methyl nitrosourea, reference compound]
SOD (U/mg): 3.32

Quick one: SOD (U/mg) for CNCCOc1ccc(C(=O)O[C@@H]2/C=C/C(=O)O[C@@H](O)CCC/C=C/[C@@H]3C[C@H](O)C[C@H]32)cc1C(C)=O [Compound 3DPQ-1] ?
8.83

Quick one: SOD (U/mg) for CC(=O)c1cc(C(=O)O[C@@H]2/C=C/C(=O)O[C@@H](O)CCC/C=C/[C@@H]3C[C@H](O)C[C@H]32)ccc1OCCN1CCCC(O)C1=O (some centres unmarked) [Compound 3DPQ-12] ?
13.32

----------
system: MNU-induced breast cancer; assay: In vivo anticancer screening, MNU-induced mammary tumorigenesis; set-up: species or system female Wistar rats; details: dose 5 mg/kg per os after MNU
Marks after values point to notes of the source that are not given here.
measuredMetric: Tumor Latency (week)

Provide the documented Tumor Latency (week) with MNU-induced breast cancer as the system for CC/C(=C(\c1ccc(O)cc1)c1ccc(OCCN(C)C)cc1)c1ccccc1 [Compound 4-OHT., 4-hydroxytamoxifen, reference compound]
7 * week

----------
conditions: rat, in vivo
measuredMetric: WL after MFD (day 1, mg)
Please respond with the number in mg and leave the unit unwritten.

Quick one: WL after MFD (day 1, mg) for CC(=O)c1cc(C(=O)O[C@@H]2/C=C/C(=O)O[C@@H](O)CCC/C=C/[C@@H]3C[C@H](O)C[C@H]32)ccc1OCCS(=O)(=O)O ?
320.73

Quick one: WL after MFD (day 1, mg) for CC(=O)c1cc(C(=O)O[C@@H]2/C=C/C(=O)O[C@@H](O)CCC/C=C/[C@@H]3C[C@H](O)C[C@H]32)ccc1OCCN1CCCC(O)C1=O (stereo partly shown) ?
305.06

Quick one: WL after MFD (day 1, mg) for CC(=O)c1cc(C(=O)O[C@@H]2/C=C/C(=O)O[C@@H](O)CCC/C=C/[C@@H]3C[C@H](O)C[C@H]32)ccc1OCCN1CC(C(=O)O)=CCC1=O ?
315.54

Quick one: WL after MFD (day 1, mg) for O=C(c1ccc(OCCN2CCCCC2)cc1)c1c(-c2ccc(O)cc2)sc2cc(O)ccc12 [Ral., Raloxifene, reference compound] ?
310.54

Quick one: WL after MFD (day 1, mg) for CC(=O)c1cc(C(=O)O[C@@H]2/C=C/C(=O)O[C@@H](O)CCC/C=C/[C@@H]3C[C@H](O)C[C@H]32)ccc1OCCN(C)C ?
305.03

----------
Molecular target: ERα (Homo sapiens)
Sequence (P03372 1-595): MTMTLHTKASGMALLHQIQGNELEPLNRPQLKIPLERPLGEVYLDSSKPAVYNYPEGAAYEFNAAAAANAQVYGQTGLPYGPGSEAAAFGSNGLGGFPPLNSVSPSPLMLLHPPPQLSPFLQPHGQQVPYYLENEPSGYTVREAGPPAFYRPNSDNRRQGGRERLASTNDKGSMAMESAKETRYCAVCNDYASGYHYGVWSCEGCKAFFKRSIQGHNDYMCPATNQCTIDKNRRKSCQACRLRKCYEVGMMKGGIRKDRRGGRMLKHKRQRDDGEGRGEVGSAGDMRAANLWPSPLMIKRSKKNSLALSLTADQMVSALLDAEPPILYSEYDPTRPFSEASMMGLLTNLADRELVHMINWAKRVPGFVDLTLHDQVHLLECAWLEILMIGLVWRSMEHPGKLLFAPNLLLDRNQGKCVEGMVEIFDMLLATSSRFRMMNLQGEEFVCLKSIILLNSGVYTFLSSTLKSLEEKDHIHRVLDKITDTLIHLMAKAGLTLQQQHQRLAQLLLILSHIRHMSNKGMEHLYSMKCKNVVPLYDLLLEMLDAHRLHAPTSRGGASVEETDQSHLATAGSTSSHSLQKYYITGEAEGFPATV
Test: Fluorescence polarization competition assay: antagonistic potency and relative binding affinity
measuredMetric: Ki (nM)
Please respond with the number in nM and leave the unit unwritten.

structureSmiles: CC(=O)c1cc(C(=O)O[C@@H]2/C=C/C(=O)O[C@@H](O)CCC/C=C/[C@@H]3C[C@H](O)C[C@H]32)ccc1OCCN1CCCC1
Ki / nM: 0.16
//
structureSmiles: CC(=O)c1cc(C(=O)O[C@@H]2/C=C/C(=O)O[C@@H](O)CCC/C=C/[C@@H]3C[C@H](O)C[C@H]32)ccc1OCCN1CCCCC1
Ki / nM: 0.17

Now for the compound whose Ki we want.
Provide the documented Ki with ERα (Homo sapiens) as the system for CC(=O)c1cc(C(=O)O[C@@H]2/C=C/C(=O)O[C@@H](O)CCC/C=C/[C@@H]3C[C@H](O)C[C@H]32)ccc1OCCN1Cc2cccnc2C1
0.19

----------
assay: Serum biochemical markers after treatment of MNU-induced rats; format: in vivo, Wistar rats; conditions: serum, dose 5 mg/kg
measuredMetric: γ-GT (U/L)
Please respond with the number in U/L and leave the unit unwritten.

molecule: CC(=O)c1cc(C(=O)O[C@@H]2/C=C/C(=O)O[C@@H](O)CCC/C=C/[C@@H]3C[C@H](O)C[C@H]32)ccc1OCCS(=O)(=O)O
resultUnits: U/L
γ-GT (U/L): 11.54
//
molecule: CC(=O)c1cc(C(=O)O[C@@H]2/C=C/C(=O)O[C@@H](O)CCC/C=C/[C@@H]3C[C@H](O)C[C@H]32)ccc1OCCN(C)C
resultUnits: U/L
γ-GT (U/L): 16.52

Quick one: γ-GT (U/L) for O=C(c1ccc(OCCN2CCCCC2)cc1)c1c(-c2ccc(O)cc2)sc2cc(O)ccc12 [Ral., Raloxifene, reference compound] ?
11.43

Quick one: γ-GT (U/L) for CC(=O)c1cc(C(=O)O[C@@H]2/C=C/C(=O)O[C@@H](O)CCC/C=C/[C@@H]3C[C@H](O)C[C@H]32)ccc1OCCN1CC(C(=O)O)=CCC1=O ?
10.32

Quick one: γ-GT (U/L) for CC/C(=C(\c1ccc(O)cc1)c1ccc(OCCN(C)C)cc1)c1ccccc1 [Compound 4-OHT., 4-hydroxytamoxifen, reference compound] ?
16.54

----------
Parameter: ALP (A/L). Scope: all listed entries.
experiment: Serum biochemical markers after treatment of MNU-induced rats; assay type: in vivo, Wistar rats; details: serum, dose 5 mg/kg
Please respond with the number in A/L and leave the unit unwritten.

Solved entries (count: 5):
compound: CC(=O)c1cc(C(=O)O[C@@H]2/C=C/C(=O)O[C@@H](O)CCC/C=C/[C@@H]3C[C@H](O)C[C@H]32)ccc1OCCS(=O)(=O)O
resultUnits: A/L
ALP (A/L): 99.41

compound: CNCCOc1ccc(C(=O)O[C@@H]2/C=C/C(=O)O[C@@H](O)CCC/C=C/[C@@H]3C[C@H](O)C[C@H]32)cc1C(C)=O
resultUnits: A/L
ALP (A/L): 104.53

compound: CC(=O)c1cc(C(=O)OC2/C=C/C(=O)O[C@@H](O)CCC/C=C/[C@@H]3C[C@H](O)C[C@@H]23)ccc1OCCN1CCC=C(C(=O)O)C1 (some centres unmarked)
resultUnits: A/L
ALP (A/L): 87.47

compound: CC/C(=C(\c1ccc(O)cc1)c1ccc(OCCN(C)C)cc1)c1ccccc1 [Compound 4-OHT., 4-hydroxytamoxifen, reference compound]
resultUnits: A/L
ALP (A/L): 105.32

compound: CC(=O)c1cc(C(=O)O[C@@H]2/C=C/C(=O)O[C@@H](O)CCC/C=C/[C@@H]3C[C@H](O)C[C@H]32)ccc1OCCN(C)C
resultUnits: A/L
ALP (A/L): 98.53

Quick one: ALP (A/L) for O=C(c1ccc(OCCN2CCCCC2)cc1)c1c(-c2ccc(O)cc2)sc2cc(O)ccc12 [Ral., Raloxifene, reference compound] ?
99.54

Quick one: ALP (A/L) for CC(=O)c1cc(C(=O)O[C@@H]2/C=C/C(=O)O[C@@H](O)CCC/C=C/[C@@H]3C[C@H](O)C[C@H]32)ccc1OCCN1CC(C(=O)O)=CCC1=O ?
125.54

Quick one: ALP (A/L) for CC(=O)c1cc(C(=O)O[C@@H]2/C=C/C(=O)O[C@@H](O)CCC/C=C/[C@@H]3C[C@H](O)C[C@H]32)ccc1OCCN1CCCC(O)C1=O (some centres unmarked) ?
132.67
